- subjectOfTest: KDR (human, UniProt P35968 20-1356)
- Sequence (P35968 20-1356): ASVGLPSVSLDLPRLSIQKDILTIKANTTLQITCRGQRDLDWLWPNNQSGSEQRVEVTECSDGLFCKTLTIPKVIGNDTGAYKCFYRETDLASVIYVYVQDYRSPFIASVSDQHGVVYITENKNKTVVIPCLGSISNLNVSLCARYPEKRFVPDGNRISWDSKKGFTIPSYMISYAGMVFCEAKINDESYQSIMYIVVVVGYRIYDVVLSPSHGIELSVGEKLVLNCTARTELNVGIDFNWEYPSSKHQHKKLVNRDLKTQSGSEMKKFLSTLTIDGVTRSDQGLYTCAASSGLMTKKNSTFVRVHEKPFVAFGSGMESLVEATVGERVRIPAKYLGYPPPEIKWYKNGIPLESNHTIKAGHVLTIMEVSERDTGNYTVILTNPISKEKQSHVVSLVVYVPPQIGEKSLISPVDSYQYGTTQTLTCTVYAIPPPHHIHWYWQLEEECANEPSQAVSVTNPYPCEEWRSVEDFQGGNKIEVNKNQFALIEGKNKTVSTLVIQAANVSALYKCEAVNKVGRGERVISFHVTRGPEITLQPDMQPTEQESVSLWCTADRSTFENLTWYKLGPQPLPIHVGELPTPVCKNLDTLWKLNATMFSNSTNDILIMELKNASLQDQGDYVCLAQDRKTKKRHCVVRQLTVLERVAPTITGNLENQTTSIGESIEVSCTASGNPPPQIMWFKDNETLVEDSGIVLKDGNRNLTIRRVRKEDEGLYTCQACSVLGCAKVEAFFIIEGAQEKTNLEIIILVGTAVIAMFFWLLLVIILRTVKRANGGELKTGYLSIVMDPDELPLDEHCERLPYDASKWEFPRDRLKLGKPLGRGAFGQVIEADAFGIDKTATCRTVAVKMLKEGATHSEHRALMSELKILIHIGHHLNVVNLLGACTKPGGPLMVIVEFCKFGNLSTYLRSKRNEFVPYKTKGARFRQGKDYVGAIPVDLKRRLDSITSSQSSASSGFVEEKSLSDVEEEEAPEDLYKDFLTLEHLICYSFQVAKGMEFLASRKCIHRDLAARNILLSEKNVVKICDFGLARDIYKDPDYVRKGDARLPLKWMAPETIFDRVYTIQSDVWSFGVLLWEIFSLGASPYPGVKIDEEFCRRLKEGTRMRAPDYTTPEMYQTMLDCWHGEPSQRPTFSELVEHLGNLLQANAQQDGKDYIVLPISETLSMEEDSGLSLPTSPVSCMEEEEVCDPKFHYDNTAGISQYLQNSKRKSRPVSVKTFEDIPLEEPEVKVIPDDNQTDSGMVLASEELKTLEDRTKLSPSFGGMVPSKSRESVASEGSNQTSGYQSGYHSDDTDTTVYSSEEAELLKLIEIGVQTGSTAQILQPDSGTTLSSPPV
- procedureText: cell-based or functional assay
Could you please report measured Activity at 133 nM (% Inhibition), 1-hour Pre-incubation at 4° C., N = 2 for the items listed next?
Number only, in %; omit the unit.

Bench note: what Activity at 133 nM (% Inhibition), 1-hour Pre-incubation at 4° C., N = 2 did 33E1 (antibody, V domains shown) VH: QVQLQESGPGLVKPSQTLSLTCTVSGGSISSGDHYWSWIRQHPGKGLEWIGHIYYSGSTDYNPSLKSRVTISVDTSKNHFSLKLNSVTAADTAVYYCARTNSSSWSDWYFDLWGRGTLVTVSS VL: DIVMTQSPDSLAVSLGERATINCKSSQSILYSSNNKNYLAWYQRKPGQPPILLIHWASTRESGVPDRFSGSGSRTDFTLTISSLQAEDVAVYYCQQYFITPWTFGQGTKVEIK show?
75

Bench note: what Activity at 133 nM (% Inhibition), 1-hour Pre-incubation at 4° C., N = 2 did 30D7 (antibody, V domains shown) VH: QVPLVESGGGVVQPGRSLRLSCAASGFTFSSYGMHWVRQAPGKGLEWVAVIWYDGSNKYYADSVKGRFTISRDNSKNTLYLQMNSLRAEDTAVYYCARGVTMVRGVIIARYYYGLDVWGQGTTVTVSS VL: DIVMTQTPLSSPVTLGQPASISCRSSQSLVHSDGNTYLSWLQQRPGQPPRLLIYKISNRFFGVPDRFSGSGAGTDFTLKIGRVEAEDVGLYYCMQSTQFPLTFGGGTKVEIK show?
28

Bench note: what Activity at 133 nM (% Inhibition), 1-hour Pre-incubation at 4° C., N = 2 did 22B8 (antibody, V domains shown) VH: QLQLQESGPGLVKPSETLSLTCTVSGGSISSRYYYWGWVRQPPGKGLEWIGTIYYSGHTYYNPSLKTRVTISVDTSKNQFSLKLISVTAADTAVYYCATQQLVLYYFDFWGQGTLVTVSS VL: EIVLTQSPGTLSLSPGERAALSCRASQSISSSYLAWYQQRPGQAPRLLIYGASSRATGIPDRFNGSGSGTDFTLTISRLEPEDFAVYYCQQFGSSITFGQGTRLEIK show?
76
